FYI, the data here is from ChEMBL document CHEMBL1201862.

Documented GI50 across a set of molecules
- Tested on: LXFL 529
- experiment: NCI tumour cell line growth inhibition, 48 h
The source made the active and inactive calls. No stated cut-off is given here; in the data, active = GI50 up to about 1.1 µM and inactive = higher.

Would you please look over these solved cases?
>>> assayresult("CN(C)Cc1cc(/C(=C(\\C#N)c2ccccc2)c2ccc(O)cc2)ccc1O")
"18.2 µM (inactive)"
>>> assayresult("C=CCCC(OCOCCOC)c1cc(C)c(O[Si](C)(C)C(C)(C)C)c(C)c1 (stereo unspecified)")
"22.8 µM (inactive)"
>>> assayresult("O=C(c1ccccc1)C1OC12C(=O)Nc1c(Cl)cc(Cl)cc12 (stereo unspecified)")
"23.6 µM (inactive)"
>>> assayresult("Cc1c(N)nc(C(CC(N)=O)NCC(N)C(N)=O)nc1C(=O)NC(C(=O)NC(C)C(O)C(C)C(=O)NC(C(=O)NCCc1nc(-c2nc(C(=O)NCCCNCCCCN)cs2)cs1)C(C)O)C(OC1OC(CO)C(O)C(O)C1OC1OC(CO)C(O)C(OC(N)=O)C1O)c1c[nH]cn1 (stereo unspecified)")
"> 10 µM (inactive)"
>>> assayresult("CN(C)CCC1(C2=CCCC2)CC/C(=C\\c2ccccc2Cl)C1=O (stereo unspecified)")
"11.5 µM (inactive)"
>>> assayresult("CCOC(=O)Cn1c(=O)[nH]c(=O)c2c1ncn2Cc1ccccc1")
"> 100 µM (inactive)"
>>> assayresult("COc1cc2cccc(/N=C\\c3cccc(OC)c3OC(C)C)c2cc1OC")
"14.7 µM (inactive)"
>>> assayresult("C=C1C(OC(C)=O)CC(OC(C)=O)C2(C)C(OC(C)=O)C(OC(C)=O)C3=C(C)C(OC(=O)/C=C/c4ccccc4)CC(C(OC(C)=O)C12)C3(C)C (stereo unspecified)")
"51.9 µM (inactive)"

Param item = COc1cc(Nc2nc3c(N)cc(C(F)(F)F)cc3nc2-c2ccccc2)cc(OC)c1OC ; retrieve measured GI50.
63.5 µM (inactive)

Param item = O/N=C1/C(=C/c2ccc(OCc3ccccc3)cc2)CCCC1C(NO)c1ccc(OCc2ccccc2)cc1 (stereo unspecified) ; retrieve measured GI50.
12.7 µM (inactive)

Param item = CC(=O)Nc1[nH]n(C)c(=O)c1-c1nnc(C)s1 ; retrieve measured GI50.
> 100 µM (inactive)

Param item = Cc1cc2nc3c(=O)[nH]c(=O)nc-3n(CC(O)C(O)C(O)CO)c2cc1N (stereo unspecified) ; retrieve measured GI50.
> 100 µM (inactive)

Param item = CCCN(CCC)C(=O)Cc1c2n(c3ccccc13)Cc1ccccc1-2 ; retrieve measured GI50.
42.4 µM (inactive)

Param item = CC(=O)/C=C\C(=O)NNS(=O)(=O)c1ccc(C)cc1 ; retrieve measured GI50.
> 100 µM (inactive)

Param item = C=C(C[N+](C)(C)C)N/N=C/c1oc(-c2ccc(OC)c(OC)c2)c(-c2ccc(OC)c(OC)c2)c1[N+](=O)[O-] ; retrieve measured GI50.
22.9 µM (inactive)

Param item = CN(C)CCCNc1ccc2nnn3c4ccc([N+](=O)[O-])cc4c(=O)c1c23 ; retrieve measured GI50.
1.22 µM (inactive)

Param item = Cc1[nH]c2ccccc2c1C(=O)CC1(O)C(=O)Nc2c(Cl)cc(Cl)cc21 (stereo unspecified) ; retrieve measured GI50.
16.4 µM (inactive)

Param item = COc1ccc2[nH]c3c4c(ccc3c2c1)C(=O)C=CC4=O ; retrieve measured GI50.
5.02 µM (inactive)

Param item = O=C(Cc1ccccc1)NN1C(=O)C(Cl)C1c1ccccc1O (stereo unspecified) ; retrieve measured GI50.
24.4 µM (inactive)

Param item = O=S1(=O)OCCOS(=O)(=O)C1Cl ; retrieve measured GI50.
> 100 µM (inactive)

Param item = Oc1c(Cl)c2nccnc2c2ccccc12 ; retrieve measured GI50.
> 100 µM (inactive)
